- System: RAW-Dual (murine macrophage reporter line)
- assay-explanation: NF-kB reporter (SEAP) activity fold change vs agonist alone; higher = enhanced NF-kB activity
- test-settings: modulator concentration 10 µM; agonist: CpG ODN 1826 0.5 ug/mL
value-type: NF-kB reporter
Hey, just send me the number, nothing else.

(Q) Look up NF-kB reporter for this compound: O=S1(=O)N=C(NN=Cc2ccccc2O)c2ccccc21
(A) 1

(Q) Consider next the compound CCOCC(=O)Nc1nc2c(C(F)(F)F)cccc2s1 in the same way.
(A) 1.16

(Q) Consider next the compound O=C(c1cc(C(F)(F)F)cc(C(F)(F)F)c1)N1CCOCC1CO (stereo unspecified) in the same way.
(A) 0.94

(Q) Consider next the compound Cc1ccc(C(=O)NC2CCN(c3ccc4nncn4n3)C2)c(C)c1 (stereo unspecified) in the same way.
(A) 0.957

(Q) Consider next the compound CC(O)(P(=O)(O)O)P(=O)(O)O in the same way.
(A) 0.76

(Q) Consider next the compound COc1ccc(C2Nc3ccc(C(=O)c4ccccc4)cc3NC3=C2C(=O)CCC3)c(OC)c1 (stereo unspecified) in the same way.
(A) 0.77

(Q) Consider next the compound O=C(NCC1(O)CCOc2ccccc21)c1ccccc1C(F)(F)F (stereo unspecified) in the same way.
(A) 1.85

(Q) Consider next the compound CC1(C)COC(=O)C1=NNc1ccc([N+](=O)[O-])cc1 in the same way.
(A) 1.02

(Q) Consider next the compound COCCOC(=O)C1=C(C)NC(=O)NC1c1cc(OC)c(OC)c(OC)c1 (stereo unspecified) in the same way.
(A) 0.937

(Q) Consider next the compound CCOCCn1c(C2CCN(CCc3ccc(C(C)(C)C(=O)O)cc3)CC2)nc2ccccc21 in the same way.
(A) 1.29

(Q) Consider next the compound CCC(C)(C)C(=O)OC1CC(C)C=C2C=CC(C)C(CCC3CC(O)CC(=O)O3)C21 (stereo unspecified) in the same way.
(A) 1.65

(Q) Consider next the compound Cn1nc(CNS(=O)(=O)c2cccc(C(F)(F)F)c2)c2c1CCOC2 in the same way.
(A) 1.13

(Q) Consider next the compound CCc1ccc(CCOc2ccc(CC3SC(=O)NC3=O)cc2)nc1.Cl (stereo unspecified) in the same way.
(A) 1.34

(Q) Consider next the compound CCC(C(=O)N1CCC2(CC1)CC2(F)F)c1ccccc1 (stereo unspecified) in the same way.
(A) 1.08

(Q) Consider next the compound CCc1sc2sncc2c1Br in the same way.
(A) 0.199

(Q) Consider next the compound COc1cc(C(C)=O)ccc1OCCCN1CCC(c2noc3cc(F)ccc23)CC1 in the same way.
(A) 0.986

(Q) Consider next the compound Cc1ccc(-c2cc(NC(=O)c3ccc([N+](=O)[O-])cc3)[nH]n2)cc1 in the same way.
(A) 1.43

(Q) Consider next the compound O=C(Nc1ccc([N+](=O)[O-])cc1Br)C1CC12CCC2 (stereo unspecified) in the same way.
(A) 0.957

(Q) Consider next the compound O=C(Nc1nc(CC(=O)N2CCOCC2)cs1)c1ccccc1 in the same way.
(A) 1.02

(Q) Consider next the compound Clc1ccc(C2C=C(c3ccccc3)Nc3ncnn32)cc1 (stereo unspecified) in the same way.
(A) 1.08

(Q) Consider next the compound O=C(O)CC(c1ccccc1)N1C(=O)c2ccccc2C1=O (stereo unspecified) in the same way.
(A) 0.999

(Q) Consider next the compound O=C(NN=Cc1c(O)ccc2ccccc12)c1ccccc1I in the same way.
(A) 1.54

(Q) Consider next the compound Cc1cnc2c(c1SCC(=O)N1CCc3ccccc31)c(=O)n(C)c(=O)n2C in the same way.
(A) 1.01

(Q) Consider next the compound COc1cc2c3cc1Oc1cc(ccc1O)OC1c4c(cc(OC)c(O)c4Oc4ccc(cc4)CC3N(C)CC2)CCN1C (stereo unspecified) in the same way.
(A) 0.191

(Q) Consider next the compound O=C1CCC(=O)N1CC(O)Cn1c2ccc(Cl)cc2c2cc(Cl)ccc21 (stereo unspecified) in the same way.
(A) 0.671

(Q) Consider next the compound CCN(CC)c1ccc(C=C(C#N)c2n[nH]c(N)c2C#N)c(OC)c1 in the same way.
(A) 1.43
